Test system: pyruvate kinase (Bacillus stearothermophilus)
Test: Pyruvate Kinase;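 also: potency is read from the fitted curve at half-maximal effect; the screen sought inhibitors and activators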
Conditions: purified pyruvate kinase, luminescence ATP production; ribose 5-phosphate activator present at AC10
Screen size: about 51,000 compounds; about 600 (1.2%) were called active. Inconclusive results (about 2%) are left out. This excerpt belongs to a sample that is enriched for actives.

# compound, Potency
rows = [
    ("COC(=O)c1[nH]c2ccccc2c1NS(=O)(=O)c1ccc(OC)cc1OC", "> 57 µM (inactive)"),
    ("COc1ccc(CNC(=O)c2cc3c(=O)n4ccccc4nc3n(CC3CCCO3)c2=N)cc1 (stereo unspecified)", "> 57 µM (inactive)"),
    ("COCCn1c(-c2ccc(OC)c(OC)c2)nc2ccccc21", "> 57 µM (inactive)"),
    ("CCCCOc1ccc(C(C)(O)CCN2CCOCC2)cc1 (stereo unspecified)", "> 57 µM (inactive)"),
    ("Cc1cc(=O)oc(C)c1C(=O)Nc1cnc2ccccc2c1", "> 57 µM (inactive)"),
    ("CCCn1c(C(O)c2cc(OC)ccc2OC)nc2ccccc21 (stereo unspecified)", "> 57 µM (inactive)"),
    ("Cc1cccc(NC(=O)c2ccccc2NC(=O)C(C)(C)C)n1", "> 57 µM (inactive)"),
    ("CC(C)OC(=O)C(C#N)c1nc2ccccc2nc1N1CCN(Cc2ccc3c(c2)OCO3)CC1 (stereo unspecified)", "> 25.6 µM (inactive)"),
    ("CCc1ccccc1NC(=O)CSc1nnc([C@@H](NC(=O)OC(C)(C)C)C(C)CC)o1 (stereo partly specified)", "> 57 µM (inactive)"),
    ("COc1ccccc1Cc1nc(-c2ccc(C)cc2)no1", "> 57 µM (inactive)"),
    ("N#Cc1c2c(c(-c3ccccc3)[nH]c1=O)CCCC2", "> 25.6 µM (inactive)"),
]

###

Below, each entry is listed with its recorded Potency.
Test system: pyruvate kinase (Bacillus stearothermophilus)
Assay: Pyruvate Kinase;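 also: potency is read from the fitted curve at half-maximal effect; the screen sought inhibitors and activators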
Conditions: purified pyruvate kinase, luminescence ATP production; ribose 5-phosphate activator present at AC10
Among all 51,000 compounds or so, about 600 (1.2%) were called active. Not shown: some 2% with an inconclusive outcome. The sample as a whole holds a higher share of actives than the screen did.
metricName: Potency

# compound, recordedResult
measured = [
    ("CC1CCN(C(=O)Cn2cc(C(=O)c3ccco3)c3ccccc32)CC1", "> 57 µM (inactive)"),
    ("CCOC(=O)c1cc(-c2nnc(-c3cc(OC)c(OC)c(OC)c3)o2)c(C)nc1C", "> 57 µM (inactive)"),
    ("COc1ccc(CCN2C(=O)c3[nH]nc(-c4ccccc4O)c3C2c2ccc(C)cc2)cc1OC (stereo unspecified)", "> 57 µM (inactive)"),
    ("Cc1ccc2nc(NCCCNC(=O)c3cnccn3)c(C#N)cc2c1", "> 57 µM (inactive)"),
    ("N#CCCN(CCC#N)c1nnc(-c2ccccc2)s1", "> 25.6 µM (inactive)"),
    ("COC(=O)CNC(=O)c1ccc2c(c1)S(=O)(=O)c1ccccc1C2=O", "> 57 µM (inactive)"),
]

###

Test system: pyruvate kinase (Bacillus stearothermophilus)
Assay: Pyruvate Kinase;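 also: potency is read from the fitted curve at half-maximal effect; the screen sought inhibitors and activators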
Conditions: purified pyruvate kinase, luminescence ATP production; ribose 5-phosphate activator present at AC10
Hit rate of the full screen: of about 51,000 compounds, about 600 (1.2%) were called active. Not shown: some 2% with an inconclusive outcome. Only a selection was taken, and actives are over-represented in it overall.
metricName: Potency

# compound, recordedResult
records = [
    ("COc1c(F)c(F)c(-c2csc(N)n2)c(F)c1F", "> 57 µM (inactive)"),
    ("CCCCc1cc(=O)oc2cc(C)cc(OCc3nn[nH]n3)c12", "> 57 µM (inactive)"),
    ("COc1ccc(-c2cc3ccc(OCc4nn[nH]n4)cc3oc2=O)cc1", "5.08 µM (active)"),
    ("O=C(CSc1nnc(-c2cccs2)n1-c1ccccc1)N1CCN(C(=O)c2ccco2)CC1", "> 57 µM (inactive)"),
    ("CC1CCCN(C(=O)Cn2c(=O)oc3ccccc32)C1 (stereo unspecified)", "> 57 µM (inactive)"),
    ("CC(C)c1nc(-c2ccccn2)no1", "> 57 µM (inactive)"),
]

Data origin: PubChem BioAssay AID361
